Tested on: HIV-1NL4-3(36G) V38A/N42D
Details: T20-resistant
experimental readout: IC50 (nM)
Just the number please, in nM, no unit attached.

Sample IEAQQHLLQLTVWGIKQLQARILAVERYGYIPEAPRDGQAYVRKDGEWVLLSTFL [N28Fd] ; IC50 observed: 29

###

System: HIV-1NL4-3(36G) N42S
Conditions: T20-sensitive
experimental readout: IC50 (µM)
Just the number please, in µM, no unit attached.

Sample IEAQQHLLQLTVWGIKQLQARILAVERYGYIPEAPRDGQAYVRKDGEWVLLSTFL [N28Fd] ; IC50 observed: 0.0269
